# Tested on: T1, EDIII-DV3 (E protein domain III of dengue virus serotype DV-3) (dengue virus serotype DV-3, UniProt P27915 571-678)
# T1 construct: also called DENV-3; EDIII of DV-3
# T1 sequence (P27915 571-678, tags left off): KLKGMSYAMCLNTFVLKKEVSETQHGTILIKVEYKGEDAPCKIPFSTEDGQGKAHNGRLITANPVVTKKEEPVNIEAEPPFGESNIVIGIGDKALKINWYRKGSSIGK
Measurement kind: pKd
Please report pKd as the negative decimal logarithm of the molar concentration, giving only the number.

-- ask Would you mind telling me what pKd value was observed for antibody B48 (antibody, V domains shown, also called mAb B48) VH: QVQLVQSGAEVKKPGASVKVSCKAGFNIKDTYMSWVRQAPEQGLEWMGRIDPENGDTKYDPKLQGRVTMTADTSTNTAYMELRSLRSDDTAVYYCARGWEGFAYWGQGTLVTVSS VL: DIVMTQSPASLAVSLGERATISCRASENVDKYGNSFMHWYQQKPGQPPKLLIYRASELQWGVPDRFSGSGSGTDFTLTISSLQAEDVAVYYCQRSNEVPWTFGQGTKLEIK ?
-- reply 8.10

src = patent US20240425569A1
